Reference source for all entries: PubChem BioAssay (NCI)

system: NCI/ADR-RES ovarian; test: NCI tumour cell line growth inhibition, 48 h
Endpoint: TGI

Example cases with answers are listed next.
# Molecule, Subject Of Test, Test Value
rows = [
    ("CC(=O)C(C(=O)C(C)(C)C)C(=O)C(C)(C)C", "NCI/ADR-RES ovarian", "> 100 µM"),
    ("CN(C)/C=N/S(=O)(=O)c1nn2c(C=O)c(-c3cc4ccccc4oc3=O)nc2s1", "NCI/ADR-RES ovarian", "> 100 µM"),
    ("CC(C)(CN1CCCCC1)C(=O)/C=C/c1c(Cl)cccc1Cl", "NCI/ADR-RES ovarian", "5.09 µM"),
    ("CC(CN(C)C)C(=O)/C=C/c1ccc(Cl)c(Cl)c1 (stereo not drawn)", "NCI/ADR-RES ovarian", "79.6 µM"),
    ("O=C1C=C(NCCc2cc(Br)c(O)c(Br)c2)C(=O)c2[nH]cnc21", "NCI/ADR-RES ovarian", "> 100 µM"),
]

Please fill in: TGI reported for CSc1nc(=O)c(C#N)c(-c2ccccc2)n1C1OC(COC(C)=O)C(OC(C)=O)C(OC(C)=O)C1OC(C)=O (stereo not drawn) = > 100 µM

Please fill in: TGI reported for Cc1[nH]nc(C(=O)Nc2n[nH]c3ccccc23)c1[N+](=O)[O-] = > 100 µM

Please fill in: TGI reported for C#CC#CC#CC#CC#CC#CC#CC#CCC1OC[C@H](COC(=O)O[C@@H](C(=O)O[C@H]2C[C@@]3(O)[C@@H](OC(=O)c4ccccc4)[C@@H]4[C@]5(OC(C)=O)CO[C@@H]5C[C@H](O)[C@@]4(C)C(=O)[C@H](OC(C)=O)C(=C2C)C3(C)C)[C@@H](NC(=O)c2ccccc2)c2ccccc2)O1 (stereo partly drawn) = > 33.3 µM

* * *

system: A498 renal; experiment: NCI tumour cell line growth inhibition, 48 h
# Lookup of reported TGI keyed by entry
Could you give me the number in µM? Just the number is fine.

# Molecule, Units Text, TGI
measured = [
    ("O=C(CC(=O)c1ccccc1NC1=Cc2ccccc2C(=O)C1=O)C(=O)NC1=C(Cl)C(=O)c2ccccc2C1=O", "µM", 30.3),
    ("C=CCNC(=S)OCCCCCCCCCC", "µM", 33.3),
    ("COC1CCC(n2c([C@@H]3CCCC(=O)N3c3ccc(F)c(F)c3)nc3cc(-c4c(C)noc4C)ccc32)CC1 (stereo not given in full)", "µM", 20),
]

Now turn to the next molecule.
Please fill in: TGI reported for COC(=O)C(N)CCCC(N)C(=O)NC(C)C(=O)NC(CCC(=O)NCCCNc1ccc([N+](=O)[O-])c2[nH]c3ccccc3c(=O)c12)C(N)=O (stereo not given) = 30.7

* * *

# Lookup of reported GI50 keyed by entry
test system: 786-0 renal; assay: NCI tumour cell line growth inhibition, 48 h

Example cases with answers are listed next.
# Chemical String, Subject Of Test, GI50
data = [
    ("CC1(C)CC[C@]2(C(=O)O)CC[C@]3(C)[C@H](CC[C@@H]4[C@@]5(C)CCC(=O)C(C)(C)[C@@H]5CC[C@]43C)[C@H]2[C@H]1OC(=O)C(F)(F)F", "786-0 renal", "14.3 µM"),
    ("Oc1ccc(-c2nc3ccc4[nH]ncc4c3c3c2CCCC3)c2cccnc12", "786-0 renal", "0.435 µM"),
]

Now turn to the next molecule.
Please fill in: GI50 reported for CC(C)[C@@H](CS(=O)(=O)C(C)C)N1C(=O)[C@@](C)(CC(=O)O)C[C@H](c2cccc(Cl)c2)[C@H]1c1ccc(Cl)cc1 = 20.8 µM

* * *

system: A498 renal; experiment: NCI tumour cell line growth inhibition, 48 h
# Lookup of reported TGI keyed by entry

# Compound, Subject Of Test, Test Value
rows = [
    ("CCOC(=O)c1ccc(NC(NC(=O)CC)(C(F)(F)F)C(F)(F)F)cc1", "A498 renal", "> 100 µM"),
    ("CC(C)[C@@H](CS(=O)(=O)C(C)C)N1C(=O)[C@@](C)(CC(=O)O)C[C@H](c2cccc(Cl)c2)[C@H]1c1ccc(Cl)cc1", "A498 renal", "16.8 µM"),
    ("C/C(=N\\NC(=O)N/N=C(\\C)c1ccccn1)c1ccccn1", "A498 renal", "> 100 µM"),
]

Noted TGI for Cc1ccsc1/C=N/Nc1ccccn1 , tested on A498 renal: > 100 µM

Noted TGI for O=[N+]([O-])c1cc(Cl)ccc1S(=O)(=O)c1cc(Cl)cc2c1NCCC2 , tested on A498 renal: > 100 µM

Noted TGI for Oc1ccc(SCc2ccc(NCc3ccccc3)cc2)cc1 , tested on A498 renal: 88 µM

Noted TGI for Cc1nc(N)nc(N)c1N1CCN(Cc2ccccc2)CC1 , tested on A498 renal: > 100 µM

Noted TGI for CC(C)(Oc1ccc(C(=O)c2ccc(Cl)cc2)cc1Cl)C(=O)N1CCN(c2ccccc2)CC1 , tested on A498 renal: > 100 µM

Noted TGI for CC(C)C(/C=C/c1ccccc1)=N\NC(=S)NN , tested on A498 renal: > 100 µM

* * *

tested on: UACC-62 melanoma; test: NCI tumour cell line growth inhibition, 48 h; in the data active = GI50 below about 0.43 µM; inactive = the rest
Allowed answers: yes (1) (active), no (0) (inactive)

# Compound, Class Name
data = [
    ("COc1cc(/C=C/C(=O)c2cc(OC)c(OC)c(OC)c2)cc(OC)c1OC", "no (0)"),
    ("COc1ccc(C(=O)N/N=C/c2ccc(O)cc2O)cc1Nc1ccnc(C(F)(F)F)c1", "no (0)"),
    ("Cc1ccccc1NC(=O)c1sc2nc3c(cc2c1N)C(=O)CCC3", "no (0)"),
    ("Cc1[nH]nc(C(=O)Nc2n[nH]c3ccccc23)c1[N+](=O)[O-]", "no (0)"),
    ("C=C(C(=O)OC)[C@@H]1C[C@@H](O)[C@]2(C)CC/C=C(\\C)CCC[C@H](C)[C@H](O)C1O2", "no (0)"),
    ("COC(=O)c1cc2c(cc1Cl)SC(N(N(C)C)S(=O)(=O)c1ccc(Cl)cc1)=NS2(=O)=O", "no (0)"),
]

### Prompt Record lookup: outcome of this test for COc1ccc2c(c1)C(=O)c1c-2n(CCCCl)c(=O)c2cc(N(C)C)ccc12 ?
### Response no (0)

### Prompt Record lookup: outcome of this test for Clc1ccc(Nc2nc3ccccc3c3occc23)cc1 ?
### Response no (0)

### Prompt Record lookup: outcome of this test for COC1CCC(n2c([C@@H]3CCCC(=O)N3c3ccc(F)c(F)c3)nc3cc(-c4c(C)noc4C)ccc32)CC1 (stereo partly specified) ?
### Response no (0)

### Prompt Record lookup: outcome of this test for CCCCC#Cc1cccc(=O)o1 ?
### Response no (0)

### Prompt Record lookup: outcome of this test for COc1ccc(-c2[nH]ncc2-c2cc(OC)c(OC)c(OC)c2)cc1 ?
### Response yes (1)

* * *

# Lookup of reported TGI keyed by entry
tested on: RXF 393 renal; assay: NCI tumour cell line growth inhibition, 48 h
Could you give me the number in µM? Just the number is fine.

Example cases with answers are listed next.
# Molecule, TGI [µM]
rows = [
    ("Clc1ccc(-c2cn(-c3ccccc3)c(-c3ccccc3)n2)c(Cl)c1", 11.9),
    ("COc1cccc(C2C(C#N)=C(N)Oc3cc(OC)ccc32)c1 (centres undefined)", 81.1),
    ("C=CCNC(=S)OCCCCCCCCCC", 29.1),
]

Noted TGI for CC(C)(C)c1cc(C2NC(=O)NC2=O)cc(C(C)(C)C)c1O (centres undefined) , tested on RXF 393 renal: 95.7

Noted TGI for CC(C)=CCC/C(C)=C/CC/C(C)=C/CSc1ccc(Cl)cc1C(=O)O , tested on RXF 393 renal: 44.6

* * *

tested on: NCI-H522 lung; test: NCI tumour cell line growth inhibition, 48 h
# Lookup of reported TGI keyed by entry
Could you give me the number in µM? Just the number is fine.

Please fill in: TGI reported for Cc1ccc(N(C(=O)CC(=O)N2N=C(c3ccccc3)C(N=Nc3ccc([N+](=O)[O-])cc3)C2=O)C(=O)c2ccc(Cl)cc2)cc1 (stereo not given) = 9.76

Please fill in: TGI reported for Nc1nc(Nc2ccc3c(c2)CCC(N2CCCC2)CC3)nn1-c1cc2c(nn1)-c1ccccc1CCC2 (stereo not given) = 3.27

Please fill in: TGI reported for COC1=CCC2=C(CCN(C(=O)C3CCC3)C2Cc2ccc(OC)c(O)c2)C1 (stereo not given) = 42

Please fill in: TGI reported for Cc1ccccc1NC(=O)c1sc2nc3c(cc2c1N)C(=O)CCC3 = 3.5

Please fill in: TGI reported for COc1cc(/C=C2\CCc3ccccc3C2=O)cc(OC)c1OC = 28.2

Please fill in: TGI reported for CCCCc1nc2cc(/C=C/C(=O)NO)ccc2n1CCN(CC)CC = 0.52

Please fill in: TGI reported for Cc1cnc2[nH]c(-c3cccc(Cl)c3)cc(=O)c2c1 = 15

Please fill in: TGI reported for N#Cc1nc(Nc2ccc([N+](=O)[O-])cc2)sc1N = 32.1

Please fill in: TGI reported for COC(=O)[C@H](Cc1ccccc1)NC(=O)[C@@H](OC)[C@@H]1Cc2cc3cc(OC4CC(OC5CC(O)C(O)C(C)O5)C(O)C(C)O4)c(C)c(O)c3c(O)c2C(=O)[C@H]1OC1CC(OC2CC(OC3CC(C)(O)C(O)C(C)O3)C(O)C(C)O2)C(O)C(C)O1 (stereo not given in full) = 1.72

Please fill in: TGI reported for Cc1ccc(CC(=O)Nc2ccc(NC(=O)CNC(=O)/C=C/c3ccc(-c4ccccc4)cc3)cc2C(=O)c2ccccc2)cc1 = 18.4

Please fill in: TGI reported for CC(C)(C)n1cc(-c2ccnc(NCCNS(=O)(=O)c3cccc4ccccc34)c2)c(-c2cccc(F)c2)n1 = 44.5

Please fill in: TGI reported for COc1ccc(C(=O)N/N=C/c2ccc(O)cc2O)cc1Nc1ccnc(C(F)(F)F)c1 = 27.3

Please fill in: TGI reported for COc1ccc2sc3c(NCCCNCCO)nc4ccccc4c3c(=O)c2c1 = 3.37
